Reference source for all entries: paper PMC5011342

Examples of molecules with documented 1 µM (% DMSO) follow.
System: expanded OPCs
Test summary: cells
Experimental context: alamarBlue viability of expanded OPCs, compound at 1 µM, relative to DMSO control
Report the value in % DMSO with no unit label.

>>> observed("Nc1ccn([C@@H]2CS[C@H](CO)O2)c(=O)n1")
88.1
>>> observed("CC(COc1ccccc1)NC(C)C(O)c1ccc(O)cc1 (stereo not shown)")
91.9
>>> observed("Cc1cccc(Nc2ccccc2C(=O)O)c1C")
91.8

Attention now turns to another entry.
Q: For the molecule CN(C)C(=O)C(CCN1CCC(O)(c2ccc(Cl)cc2)CC1)(c1ccccc1)c1ccccc1 [Loperamide] , what 1 µM (% DMSO) is on record?
Ans: 40.0

----------
Test system: expanded OPCs
Test summary: cells
Experimental context: Rattus norvegicus, 72 h, read-out: 10 µM (% DMSO), alamarBlue viability of expanded OPCs, compound at 10 µM, sheet All Tox data
Value kind: viability at 10 µM (%)
Report the value in % with no unit label.

Q: For the molecule `Cc1c(O)cccc1C(=O)N[C@@H](CSc1ccccc1)[C@H](O)CN1C[C@H]2CCCC[C@H]2C[C@H]1C(=O)NC(C)(C)C` , what viability at 10 µM is on record?
Ans: 11.3

Q: For the molecule NC(=O)N1c2ccccc2CC(=O)c2ccccc21 [Oxcarbazepine] , what viability at 10 µM is on record?
Ans: 73.5

----------
System: expanded OPCs
Test summary: cells
Experimental context: Rattus norvegicus, 72 h, read-out: 10 µM (% DMSO), alamarBlue viability of expanded OPCs, compound at 10 µM, sheet All Tox data
Examples of compounds with documented viability at 10 µM follow.
Report the value in % with no unit label.

>>> observed("O=C(O)Cc1ccccc1Nc1c(Cl)cccc1Cl [Diclofenac]")
88.8
>>> observed("NNCCc1ccccc1 [Phenelzine]")
93.1
>>> observed("COc1ccc2c(c1)[C@]13CCCC[C@@H]1[C@H](C2)N(C)CC3 [Dextromethorphan]")
59.6

Attention now turns to another entry.
Q: For the compound COc1cc(N)c(Cl)cc1C(=O)NC1CN2CCC1CC2 (stereo not drawn) [Zacopride] , what viability at 10 µM is on record?
Ans: 91.9

----------
Test system: expanded OPCs
Test summary: cells
Experimental context: alamarBlue viability of expanded OPCs, compound at 0.1 µM, relative to DMSO control
Value kind: 0.1 µM (% DMSO)
Report the value in % DMSO with no unit label.

As a guide, the following entries are already answered.
>>> observed("CNCCC=C1c2ccccc2CCc2ccccc21 [Nortriptyline]")
66.6
>>> observed("CC1(C)S[C@@H]2[C@H](NC(=O)[C@H](N)c3ccccc3)C(=O)N2[C@H]1C(=O)O [Ampicillin]")
88.7
>>> observed("COc1cc2nc(N3CCN(C(=O)C4CCCO4)CC3)nc(N)c2cc1OC (stereo not shown) [Terazosin]")
93.3

Q: Give expanded OPCs 0.1 µM (% DMSO) for CC(C)C(=O)Nc1ccc([N+](=O)[O-])c(C(F)(F)F)c1 [Flutamide]
Ans: 88.5

----------
Examples of molecules with documented viability at 10 µM follow.
Test system: expanded OPCs
Test summary: cells
Experimental context: Rattus norvegicus, 72 h, read-out: 10 µM (% DMSO), alamarBlue viability, NCC library compound at 10 µM, sheet "All Tox data"

As a guide, the following entries are already answered.
>>> observed("CC(CCc1ccccc1)NCC(O)c1ccc(O)c(C(N)=O)c1 (centres unmarked) [Labetalol]")
"47.3%"
>>> observed("CC(=O)CCCCn1c(=O)c2c(ncn2C)n(C)c1=O [Pentoxifylline]")
"94.9%"
>>> observed("C=CCN1CC[C@]23c4c5ccc(O)c4O[C@H]2C(=O)CC[C@@]3(O)[C@H]1C5 [Naloxone]")
"85.6%"
>>> observed("CCOC(=O)c1cncn1[C@H](C)c1ccccc1 [Etomidate]")
"83%"

Attention now turns to another entry.
Q: For the molecule CC(C)[N+](C)(CCOC(=O)C1c2ccccc2Oc2ccccc21)C(C)C [Propantheline] , what viability at 10 µM is on record?
Ans: 148%
